assay: Cytotoxicity against human MT2 cells after 4 days by XTT assay; type: toxicity, cell-based; settings: mt2, 96 h, 96 h
ENDPOINT_NAME: CC50 (µM)
Record the value in µM, omitting the unit from your answer.

{"columns": ["COMPOUND", "CC50, µM"],
 "data": [
  ["Cc1nc(C(NC(=O)c2ccc(-c3ccc(Cl)cc3)[nH]2)C2CCCCN2)[nH]c1CO (stereo in doubt; 35A)", 36.6],
  ["Cc1ccc(-c2ccc(C(=O)NC(c3nc(C)c(CO)[nH]3)C3CCCCN3)[nH]2)cc1F (stereo in doubt; 37A)", 28.4]
]}

Task item: Fill blank: measured CC50 of the compound Cc1nc(C(NC(=O)c2ccc(-c3ccc(Cl)cc3)[nH]2)C2CCCCN2)[nH]c1CO (stereo in doubt; 35B) is ____.
Reply: 45.2

Task item: Fill blank: measured CC50 of the compound Cc1nc(C(NC(=O)c2ccc(-c3ccc(Cl)c(F)c3)[nH]2)C2CCCCN2)[nH]c1CO (stereo in doubt; 36A) is ____.
Reply: 31.1

Task item: Fill blank: measured CC50 of the compound Cc1nc(C(NC(=O)c2ccc(-c3ccc(Cl)c(F)c3)[nH]2)C2CCCCN2)[nH]c1CO (stereo in doubt; 36B) is ____.
Reply: 36.4

Task item: Fill blank: measured CC50 of the compound Cc1ccc(-c2ccc(C(=O)NC(c3nc(C)c(CO)[nH]3)C3CCCCN3)[nH]2)cc1F (stereo in doubt; 37B) is ____.
Reply: 37.1

---

IC50 for assorted compounds
system: Human immunodeficiency virus 1; test: Antiviral activity against X4 tropic HIV1 HXB2 assessed as inhibition of single cycle viral infection in human TZM-bl cells preincubated for 30 mins followed by addition of cells measured after 3 days by luciferase reporter gene assay; type: functional, cell-based; conditions: Human immunodeficiency virus 1, HXB2, TZM-bl
Record the value in µM, omitting the unit from your answer.

{"columns": ["COMPOUND", "MEASURED_ON", "MEASURED_VALUE"],
 "data": [
  ["Cc1nc([C@H](NC(=O)c2ccc(-c3ccc(Cl)c(F)c3)[nH]2)[C@H]2CCCCN2)sc1CO", "Human immunodeficiency virus 1", 3.2],
  ["Cc1nc([C@H](NC(=O)c2ccc(-c3ccc(Cl)cc3)[nH]2)[C@@H]2CCCCN2)sc1CCCO", "Human immunodeficiency virus 1", 7.6]
]}

Task item: Fill blank: measured IC50 of the compound Cc1nc([C@H](NC(=O)c2ccc(-c3ccc(Cl)c(F)c3)[nH]2)[C@@H]2CCCCN2)sc1CCCO is ____.
Reply: 5.1

Task item: Fill blank: measured IC50 of the compound Cc1nc(C(NC(=O)c2ccc(-c3ccc(Cl)c(F)c3)[nH]2)C2CCCCN2)[nH]c1CO (stereo in doubt; 36A) is ____.
Reply: 8.8

Task item: Fill blank: measured IC50 of the compound Cc1nc(C(NC(=O)c2ccc(-c3ccc(Cl)cc3)[nH]2)C2CCCCN2)[nH]c1CO (stereo in doubt; 35A) is ____.
Reply: 14.1

Task item: Fill blank: measured IC50 of the compound Cc1nc([C@@H](NC(=O)c2ccc(-c3ccc(Cl)c(F)c3)[nH]2)[C@@H]2CCCCN2)sc1CCO is ____.
Reply: 7.5

Task item: Fill blank: measured IC50 of the compound Cc1ccc(-c2ccc(C(=O)N[C@H](c3nc(C)c(CO)s3)[C@@H]3CCCCN3)[nH]2)cc1F is ____.
Reply: 2.7
